tested on: RXF 393; test: NCI tumour cell line growth inhibition, 48 h
Active and inactive are the calls of the source. No stated cut-off is given here; in the data, active = GI50 up to about 1.1 µM and inactive = higher.
Provide the recorded GI50 for the entries that follow.

Batch lookup, GI50 per entry.
1. CC1(C)CCCC(C)(C2CCC3(C)C2C(O)CC2C4(C)CCC(O)C(C)(C)C4CCC23C)O1 (stereo not given)
2. Nc1nc(-c2ccccc2)nc2oc(-c3cccs3)nc12
3. O=C1C2=C(CC3=C(C2)CS(=O)(=O)C3)C(=O)C2=C1CC1=C(C2)CS(=O)(=O)C1
4. COC(=O)C1(c2ccc(OC)cc2)NC(c2ccccc2)C2C(=O)N(c3ccc(OC)cc3)C(=O)C21 (stereo not given)
5. C/C(=N/NC(=S)N1CCCCCC1)c1ccccc1O
6. Nc1ccc(CCSSCCc2ccc(N)cc2)cc1

["3.72 µM (inactive)", "> 100 µM (inactive)", "27.3 µM (inactive)", "> 100 µM (inactive)", "51.5 µM (inactive)", "21.8 µM (inactive)"]

Value sought for every listed compound: GI50.
1. CC(C)(Oc1ccc(C2C[C@H]2Cl)cc1)C(=O)O (stereo not given in full)
2. O=C1C(Cl)C(c2cc(Br)ccc2O)N1n1cnc2ccccc2c1=O (stereo not given)
3. CC(=O)N1C(NN(C)C)CCN1c1ccccc1 (stereo not given)
4. Nc1nc(-c2cccc([N+](=O)[O-])c2)cc(-c2cc(-c3cccc([N+](=O)[O-])c3)nc(N)n2)n1

> 100 µM (inactive)
28.9 µM (inactive)
> 10 µM (inactive)
> 100 µM (inactive)

* * *

tested on: MDA-MB-435; assay: NCI tumour cell line growth inhibition, 48 h
The source made the active and inactive calls. Rule as the data show it: active = GI50 up to about 1.1 µM and inactive = higher.
Outcome field: choose from T (active), F (inactive)

Consider the worked cases shown below.
{"compound": "CN1CC(c2ccccc2)=CC2=C1C=CC(=N)/C2=N\\N", "target-or-test-system": "MDA-MB-435", "class": "F"}
{"compound": "Cc1ccc(OCC2OC(n3cnc4nc(Cl)nc(Cl)c43)CC2Oc2ccc(C)cc2)cc1 (centres undefined)", "target-or-test-system": "MDA-MB-435", "class": "F"}
{"compound": "Cc1cccc(C)c1/N=N/c1ccc(O)c(CN(C)C)c1", "target-or-test-system": "MDA-MB-435", "class": "F"}
{"compound": "CC(=O)Nc1ccc(S(=O)(=O)c2nnc(NC(C)=O)s2)cc1", "target-or-test-system": "MDA-MB-435", "class": "F"}
{"compound": "CC(C)(C)OC(=O)NCC(C#N)CNC(=O)OC(C)(C)C", "target-or-test-system": "MDA-MB-435", "class": "F"}

Please let me know the test result on file for `CNC(=O)c1cc(NC(=O)N(CCC#N)CCN(C(=O)N[C@@H](Cc2ccccc2)C(=O)N[C@@H](CC(C)C)C(=O)NC)c2ccccc2)ccc1OC` .
F

For COc1ccc(Cc2nc3cc([N+](=O)[O-])ccc3n2C[C@@H]2CCCN3CCCCC23)cc1 (some centres undefined) , what call appears in the results of this test?
F

Status in this test for `CNNC1=NS(=O)(=O)c2cc(C(=O)OC)c(Cl)cc2S1` ?
F

Look up the recorded call for `O=P(Oc1ccc(Cl)cc1)(Oc1ccc(Cl)cc1)N1CC1` in this test.
F

* * *

system: SNB-19; test: NCI tumour cell line growth inhibition, 48 h
Active and inactive are the calls of the source. Rule as the data show it: active = GI50 up to about 1.1 µM and inactive = higher.
Give your call using only these classes: active, inactive

{"compound": "CC(C)Oc1cccc(N2C(NCc3c[nH]c4ccccc34)=Nc3ccncc3S2(=O)=O)c1", "class": "inactive"}

// param item: COc1ccc(-n2cnc3c(NC(CCSC)C(=O)O)ncnc32)cc1 (stereo not given) ; yields the recorded call
inactive

Dear all, I need the recorded test outcome for `COC(=O)NC(C(F)(F)F)(C(F)(F)F)P1(=O)OCCCO1` , thank you.
inactive

Please share the test call associated with CCC1(O)CC(OC2CC(N(C)C)C(OC3CC(O)C(OC4CCC(=O)C(C)O4)C(C)O3)C(C)O2)c2c(cc3c(c2O)C(=O)c2c(O)ccc(O)c2C3=O)C1C(=O)OC (stereo not given) .
active

# outcome recorded in this test, key = `O=c1c2cccnc2ncn1CCN1CCCCC1`
inactive

* * *

test system: NCI/ADR-RES; experiment: NCI tumour cell line growth inhibition, 48 h
Calls of active or inactive are those of the source. No stated cut-off is given here; in the data, active = GI50 up to about 1.1 µM and inactive = higher.
For each entry below, report its GI50 value.

Here's what some known entries look like.
{"molecule": "C[C@H]1O[C@@H](c2c(O)ccc3ccccc23)C[C@@H](N(C)C)C1O (some centres not stated)", "experimental-endpoint": "GI50", "assay-result": "> 100 µM (inactive)"}
{"molecule": "CC(C)(Br)C(=O)C(Br)Br", "experimental-endpoint": "GI50", "assay-result": "4.82 µM (inactive)"}
{"molecule": "C=CCN1C[C@H](C)N([C@H](c2ccc(C(=O)N(CC)CC)cc2)c2cccc(OC)c2)C[C@H]1C", "experimental-endpoint": "GI50", "assay-result": "39.4 µM (inactive)"}
{"molecule": "c1cc(CCN2CCCCC2)ccn1", "experimental-endpoint": "GI50", "assay-result": "> 100 µM (inactive)"}
{"molecule": "Oc1ccc2ccccc2c1CCc1c(O)ccc2ccccc12", "experimental-endpoint": "GI50", "assay-result": "13.6 µM (inactive)"}
{"molecule": "Oc1ccc(/C=C/c2cc(O)cc(O)c2)cc1", "experimental-endpoint": "GI50", "assay-result": "19.6 µM (inactive)"}
{"molecule": "Cn1c2c(c3ccccc31)CCN1OCC=C[C@@H](C(=O)O)[C@@H]21", "experimental-endpoint": "GI50", "assay-result": "> 100 µM (inactive)"}
{"molecule": "O=C(O)CCCOc1cc(-c2ccccc2F)nc2cc3c(cc12)OCO3", "experimental-endpoint": "GI50", "assay-result": "4.65 µM (inactive)"}
{"molecule": "COCCNC1CCC2(SCCS2)c2[nH]c3ccccc3c21 (configuration not stated)", "experimental-endpoint": "GI50", "assay-result": "37.5 µM (inactive)"}
{"molecule": "Cc1cccc(NC2=NCCO2)c1Cl", "experimental-endpoint": "GI50", "assay-result": "> 100 µM (inactive)"}

# return GI50 for each item in the list
1. Cc1ccc2nc(CN3CCCCC3)cc(=O)n2c1
2. O=C(O)Cn1cc([N+](=O)[O-])c(=O)c2ccccc21
3. CS(=O)(=O)OCCN1CCC2(CC1)SSC1(CCN(CCOS(C)(=O)=O)CC1)S2
4. COc1ccc2c(c1)OCC1(O)Cc3ccccc3OC21 (configuration not stated)
5. C#CCNC(=O)NC(CCCCNC(=O)OCc1ccccc1)C(=O)OCc1ccccc1 (configuration not stated)
6. CC(=O)Nc1ccc(S(=O)(=O)Nc2nc(-c3ccc(Cl)cc3)cc(N3N=C(c4ccc(Br)cc4)CC3c3ccccc3)n2)cc1 (configuration not stated)

1: > 100 µM (inactive); 2: > 100 µM (inactive); 3: > 100 µM (inactive); 4: > 100 µM (inactive); 5: > 100 µM (inactive); 6: 17.1 µM (inactive)

* * *

tested on: UACC-257; test: NCI tumour cell line growth inhibition, 48 h
Active and inactive are the calls of the source. Rule as the data show it: active = GI50 up to about 1.1 µM and inactive = higher.
Answer with one of the outcomes given here: Y (active), N (inactive)

{"compound": "c1ccc(Cn2c(-c3ccc(-c4ccccc4)cc3)cc3ccccc32)cc1", "class": "N"}
{"compound": "Cc1cccc(C)c1/N=N/c1ccc(O)c(CN(C)C)c1", "class": "N"}
{"compound": "COC(=O)[C@H](Cc1ccccc1)NC(=O)NCCN(CCNC(=O)N[C@@H](Cc1ccccc1)C(=O)OC)C(=O)N[C@@H](Cc1ccccc1)C(=O)OC", "class": "N"}
{"compound": "CC(=O)Oc1ccc(-c2nnc(-c3ccc(OC(C)=O)cc3)nn2)cc1", "class": "N"}
{"compound": "COc1cccc(OC)c1C1ON=C(c2ccccc2)N1C12CC3CC(CC(C3)C1)C2 (stereo not drawn)", "class": "N"}
{"compound": "c1cc(CCN2CCCCC2)ccn1", "class": "N"}
{"compound": "CC(CCCOC(c1ccccc1)(c1ccccc1)c1ccccc1)OC(=O)Nc1cc([N+](=O)[O-])cc([N+](=O)[O-])c1 (stereo not drawn)", "class": "N"}
{"compound": "C=C1CC2(CC(c3ccccc3C)OC(c3ccccc3C)C2)OC1=O (stereo not drawn)", "class": "N"}
{"compound": "C#CCNC(=O)NC(CCCCNC(=O)OCc1ccccc1)C(=O)OCc1ccccc1 (stereo not drawn)", "class": "N"}
{"compound": "CC(=O)c1ccc2c3c1[C@@H]1O[C@@H]1c1cccc(c1-3)[C@@H]1O[C@H]21", "class": "N"}

Assay outcome for CCc1cccc(CC)c1NC(=O)C1=CNC(C)=C(C(=O)Nc2c(CC)cccc2CC)C1c1ccc(O)c(OC)c1 (stereo not drawn) : what was it?
N

Recorded call for CCCCCCCCCCCCCCCC(=O)OC1C(O)C(CO)OC(OC)C1NC(=O)N(CCCl)N=O (stereo not drawn) ?
N

In this assay, the call recorded for `CN(C)c1ccc(/N=C2/C=CC(=C(C#N)C#N)c3ccccc32)cc1` was what?
N

Entry O=C1CCCCCCCCCCC1CN1CCCCC1 (stereo not drawn) : call = ?
N

Outcome logged for `CNCCNc1ccc2c3c(nn2CCNCCO)-c2c(O)ccc(O)c2C(=O)c13` in this assay:
N

All values here come from ChEMBL document CHEMBL1201862.
